Exercise: state measured pIC50 for each of the compounds provided.
Target: recombinant human GST-SYK (Homo sapiens, UniProt P43405)
Construct: purchased Carna Biosciences 08-176
Assay: Homogeneous Time-Resolved Fluorescence (HTRF) assay for the recombinant human Syk enzyme
Format: biochemical
Details: GST-hSYK 5 pM, ATP 25 μM, 10-dose titration 10 μM to 0.508 nM; read-out: rhSYK Activity (IC50 rating)
pIC50: −log10 of the molar value.

Qu. Give the observed pIC50 of CCc1cccc(Nc2cc(N[C@@H]3CS(=O)(=O)CC[C@@H]3N)cnc2C(N)=O)n1 (relative stereo) [Example 1.91] for recombinant human GST-SYK (Homo sapiens, UniProt P43405).
Ans. > 8.00

Qu. Report measured pIC50 on recombinant human GST-SYK (Homo sapiens, UniProt P43405); entry: Cc1cc(C)nc(Nc2cc(N)cnc2C(N)=O)c1 [Example 9]
Ans. 5.00 to 6.00

Qu. Report pIC50 under test system recombinant human GST-SYK (Homo sapiens, UniProt P43405) for Cc1cc(C)nc(Nc2cc(N[C@@H]3CCC[C@@H]3N)cnc2C(N)=O)c1 (relative stereo) [Example 1.18] .
Ans. > 8.00

Qu. State pIC50 on recombinant human GST-SYK (Homo sapiens, UniProt P43405). Entry: NC(=O)c1ncc(N[C@@H]2CCCC[C@@H]2N)cc1Nc1cccc(-c2cn(Cc3ccccc3)nn2)n1 [Example 1.101]
Ans. > 8.00
